What pIC50 was measured for each of the following?
biological target: CDK2/CyclinE (Homo sapiens (Human)); test: CDK2/CycE kinase assay (TR-FRET); format: biochemical; conditions: 2 mM ATP (high ATP); median; read-out: CDK2/CyclinE, 2 mM ATP (high ATP), IC50 - [mol/l] (median)
pIC50: −log10 of the molar value.

Quickly give me recorded pIC50 for FC(F)(F)Oc1ccc(-c2cnc(CNc3nc(N4CCOCC4)nn4c(C(F)(F)F)cnc34)[nH]2)cc1 [Example 8]
< 4.70

Quickly give me recorded pIC50 for FC(F)(F)c1ccc(-c2nnc(CNc3nc(N4CCOCC4)nc4c(C(F)(F)F)cnn34)[nH]2)cc1 [Example 6]
< 4.70

Quickly give me recorded pIC50 for FC(F)(F)c1ccc(-c2nnc(CNc3nc(N4CCOCC4)nn4c(C(F)(F)F)cnc34)[nH]2)cn1 [Example 20]
< 5.24

Quickly give me recorded pIC50 for FC(F)(F)c1ccc(-c2nnc(CNc3nc(N4CCOCC4)nc4c(Br)cnn34)[nH]2)cc1 [Example 1]
5.01

Quickly give me recorded pIC50 for FC(F)(F)c1ccc(-c2nnc(CNc3nc(N4CCOCC4)nn4c(C(F)(F)F)cnc34)[nH]2)cc1 [Example 11]
< 4.70

Quickly give me recorded pIC50 for FC(F)(F)c1ccc(-c2cnc(CNc3nc(N4CCOCC4)nn4c(C(F)(F)F)cnc34)[nH]2)cc1 [Example 7]
< 4.70

Quickly give me recorded pIC50 for FC(F)(F)c1ccc(-c2cnc(CNc3nc(N4CCOCC4)nc4c(C(F)(F)F)cnn34)[nH]2)cc1 [Example 9]
< 4.70

Quickly give me recorded pIC50 for FC(F)(F)Oc1ccc(-c2cnc(CNc3nc(N4CCOCC4)nc4c(C(F)(F)F)cnn34)[nH]2)cc1 [Example 10]
< 4.70

Quickly give me recorded pIC50 for COc1ccc(-c2cnc(CNc3nc(N4CCOCC4)nc4c(C(F)(F)F)cnn34)[nH]2)cn1 [Example 21]
5.19

Quickly give me recorded pIC50 for FC(F)(F)c1ccc(-c2cnc(CNc3nc(N4CCOCC4)nn4c(C(F)(F)F)cnc34)[nH]2)cn1 [Example 12]
< 4.70

Quickly give me recorded pIC50 for FC(F)(F)Oc1ccc(-c2nnc(CNc3nc(N4CCOCC4)nc4c(C(F)(F)F)cnn34)[nH]2)cc1 [Example 5]
< 4.70
